system: Bacteroides stercoris; assay: growth AUC relative to DMSO control (median of replicates) (fraction); higher = more growth (less inhibition), active = hit call of the paper; details: 20 µM; 24 h
Measured growth AUC values are reported for all entries that follow.
Lab note: jot down the number only; don't add units.

Worked examples follow.
Nc1cccc(Cl)c1Cl; 1.18
COP(=S)(OC)SC(CC(=O)O)C(=O)O (stereo not given); 1.06
CCN(CC)C(=O)C(C)Oc1cccc2ccccc12 (stereo not given); 1.05

Query string: Looking for the measured growth AUC of COc1ccc(/C(=C/C(=O)N2CCOCC2)c2ccc(F)cc2)cc1OC , can you help?
Result string: 0.921

Query string: Looking for the measured growth AUC of CNC(=O)ON=C(C)C(C)SC (stereo not given) , can you help?
Result string: 1.3

Query string: Looking for the measured growth AUC of CCS(=O)c1c(C#N)nn(-c2c(Cl)cc(C(F)(F)F)cc2Cl)c1N (stereo not given) , can you help?
Result string: 1.04

Query string: Looking for the measured growth AUC of CCOC(=O)C(C)OC(=O)c1cc(Oc2ccc(C(F)(F)F)cc2Cl)ccc1[N+](=O)[O-] (stereo not given) , can you help?
Result string: 0.992

Query string: Looking for the measured growth AUC of O=C(NC(=O)c1c(F)cccc1F)Nc1cc(Cl)c(OC(F)(F)C(F)C(F)(F)F)cc1Cl (stereo not given) , can you help?
Result string: 1.01

Query string: Looking for the measured growth AUC of N#CCNC(=O)c1cnccc1C(F)(F)F , can you help?
Result string: 0.966

Query string: Looking for the measured growth AUC of COc1nc(NC(C)C)nc(NC(C)C)n1 , can you help?
Result string: 0.979

---

test system: Escherichia coli ED1a; assay: growth AUC relative to DMSO control (median of replicates) (fraction); higher = more growth (less inhibition), active = hit call of the paper; details: 20 µM; 24 h
Measured growth AUC values are reported for all entries that follow.
Lab note: jot down the number only; don't add units.

Worked examples follow.
CC(C)OC(=O)Nc1cccc(Cl)c1; 1.01
CC(C)NC(=O)N1CC(=O)N(c2cc(Cl)cc(Cl)c2)C1=O; 1.03
Cc1cnc(C2=NC(C)(C(C)C)C(=O)N2)c(C(=O)O)c1 (configuration not stated); 0.999
CNC(=O)O/N=C/C(C)(C)SC; 1.01
CCSCCSP(=S)(OC)OC; 1.01

Query string: Looking for the measured growth AUC of OC(Cc1ccccc1Cl)(Cn1cncn1)C1(Cl)CC1 (configuration not stated) , can you help?
Result string: 0.993

Query string: Looking for the measured growth AUC of O=[N+]([O-])C(Br)(CO)CO , can you help?
Result string: 1

Query string: Looking for the measured growth AUC of CCNc1nc(NC(C)(C)C)nc(SC)n1 , can you help?
Result string: 0.987

Query string: Looking for the measured growth AUC of Clc1cccc(Cl)c1Cl , can you help?
Result string: 0.985

Query string: Looking for the measured growth AUC of OC[C@@H](O)[C@H]1O[C@@H]2O[C@H](C(Cl)(Cl)Cl)O[C@@H]2[C@H]1O (mixture of isomers) , can you help?
Result string: 0.99

Query string: Looking for the measured growth AUC of CCOP(=S)(OCC)SCSCC , can you help?
Result string: 0.987

Query string: Looking for the measured growth AUC of CCCCN(CCCC)N=O , can you help?
Result string: 0.995

---

tested on: Clostridium difficile; assay: growth AUC relative to DMSO control (median of replicates) (fraction); higher = more growth (less inhibition), active = hit call of the paper; details: 20 µM; 24 h
Measured growth AUC values are reported for all entries that follow.
Lab note: jot down the number only; don't add units.

Query string: Looking for the measured growth AUC of CC(C)(C)c1cc([N+](=O)[O-])cc([N+](=O)[O-])c1O , can you help?
Result string: 0.885

---

Measured growth AUC values are reported for all entries that follow.
system: Escherichia coli ED1a; experiment: growth AUC relative to DMSO control (median of replicates) (fraction); higher = more growth (less inhibition), active = hit call of the paper; details: 20 µM; 24 h
Lab note: jot down the number only; don't add units.

Worked examples follow.
O=c1c2cc(F)ccc2nc(-n2cncn2)n1-c1ccc(Cl)cc1Cl; 0.987
COP(=S)(OC)Oc1ccc([N+](=O)[O-])c(C)c1; 0.986
C=CCOC(Cn1ccnc1)c1ccc(Cl)cc1Cl.O=S(=O)(O)O (centres undefined); 0.973

Query string: Lookup: growth AUC / Escherichia coli ED1a / CC(C)(C)C(O)C(Oc1ccc(Cl)cc1)n1cncn1 (centres undefined)
Result string: 1.01

Query string: Lookup: growth AUC / Escherichia coli ED1a / O=c1ccc(=O)[nH][nH]1
Result string: 0.973

Query string: Lookup: growth AUC / Escherichia coli ED1a / CCC(C)n1c(=O)[nH]c(C)c(Br)c1=O (centres undefined)
Result string: 0.979

Query string: Lookup: growth AUC / Escherichia coli ED1a / COP(=S)(OC)Oc1cc(Cl)c(I)cc1Cl
Result string: 1.02

Query string: Lookup: growth AUC / Escherichia coli ED1a / CC(C)(C)c1ccc(CSc2cnn(C(C)(C)C)c(=O)c2Cl)cc1
Result string: 1

Query string: Lookup: growth AUC / Escherichia coli ED1a / CCOP(=S)(OCC)Oc1nc(Cl)n(C(C)C)n1
Result string: 1

Query string: Lookup: growth AUC / Escherichia coli ED1a / CC(Oc1ccc(Oc2nc3ccc(Cl)cc3o2)cc1)C(=O)O (racemic)
Result string: 1.02

Query string: Lookup: growth AUC / Escherichia coli ED1a / CCCCOC(=O)c1ccccc1C(=O)OCCCC
Result string: 1

Query string: Lookup: growth AUC / Escherichia coli ED1a / CCOP(=O)(SC(C)CC)N1CCSC1=O (centres undefined)
Result string: 0.984

Query string: Lookup: growth AUC / Escherichia coli ED1a / NC(=O)/N=C1/SCCN1Cc1ccc(Cl)nc1
Result string: 0.999

Query string: Lookup: growth AUC / Escherichia coli ED1a / COC(=O)NCc1cc(/C(C)=N/OCc2cccc(C)n2)ccc1Cl
Result string: 1.01

Query string: Lookup: growth AUC / Escherichia coli ED1a / CCOP(=S)(OCC)SCSc1ccc(Cl)cc1
Result string: 0.986

---

system: Escherichia coli IAI1; experiment: growth AUC relative to DMSO control (median of replicates) (fraction); higher = more growth (less inhibition), active = hit call of the paper; conditions: 20 µM; 24 h
measured.metric: growth AUC
Lab note: jot down the number only; don't add units.

Worked examples follow.
CNC(=O)/C=C(\C)OP(=O)(OC)OC; 1.02
Cc1ccc(N(SC(F)(Cl)Cl)S(=O)(=O)N(C)C)cc1; 0.982
O=S(=O)(c1ccc(Cl)cc1)c1cc(Cl)c(Cl)cc1Cl; 0.99
COP(=S)(OC)Oc1ccc(S(C)(=O)=O)c(C)c1; 0.985
COC(=O)c1ccccc1S(=O)(=O)NC(=O)Nc1nc(C)nc(OC)n1; 0.958

Query string: Looking for the measured growth AUC of COC(=O)NCc1cc(/C(C)=N/OCc2cccc(C)n2)ccc1Cl , can you help?
Result string: 0.972

Query string: Looking for the measured growth AUC of c1ccc2c(c1)cc1ccc3cccc4ccc2c1c34 , can you help?
Result string: 1

Query string: Looking for the measured growth AUC of COc1cc(Cl)c(OC)cc1Cl , can you help?
Result string: 1.01

Query string: Looking for the measured growth AUC of CCOc1ccccc1OS(=O)(=O)NC(=O)Nc1nc(OC)cc(OC)n1 , can you help?
Result string: 1.01

Query string: Looking for the measured growth AUC of CCOP(=S)(OCC)Oc1ccc2c(C)c(Cl)c(=O)oc2c1 , can you help?
Result string: 1.01

---

Measured growth AUC values are reported for all entries that follow.
system: Akkermansia muciniphila; assay: growth AUC relative to DMSO control (median of replicates) (fraction); higher = more growth (less inhibition), active = hit call of the paper; settings: 20 µM; 24 h
Lab note: jot down the number only; don't add units.

COC(=O)NCc1cc(/C(C)=N\OCc2cccc(C)n2)ccc1Cl; 1.07
O=C(O)C(F)(F)C(F)(F)C(F)(F)C(F)(F)C(F)(F)C(F)(F)C(F)(F)C(F)(F)C(F)(F)F; 0.991
CC(C)C(C(=O)OC(C#N)c1cccc(Oc2ccccc2)c1)c1ccc(OC(F)F)cc1 (centres undefined); 0.959

Query string: Lookup: growth AUC / Akkermansia muciniphila / CC[C@H](C)[C@H]1O[C@]2(C=C[C@@H]1C)C[C@@H]1C[C@@H](C/C=C(\C)[C@@H](O[C@H]3C[C@H](OC)[C@@H](O[C@H]4C[C@H](OC)[C@@H](NC)[C@H](C)O4)[C@H](C)O3)[C@@H](C)/C=C/C=C3\CO[C@@H]4[C@H](O)C(C)=C[C@@H](C(=O)O1)[C@]34O)O2.O=C(O)c1ccccc1
Result string: 1.08

Query string: Lookup: growth AUC / Akkermansia muciniphila / Nc1nc(N)nc(NC2CC2)n1
Result string: 0.99

Data credit: the supplement of paper PMC12669032
